# target_entity: human TLR9 (Homo sapiens (Human), UniProt Q9NR96)
# Sequence (Q9NR96 26-1032): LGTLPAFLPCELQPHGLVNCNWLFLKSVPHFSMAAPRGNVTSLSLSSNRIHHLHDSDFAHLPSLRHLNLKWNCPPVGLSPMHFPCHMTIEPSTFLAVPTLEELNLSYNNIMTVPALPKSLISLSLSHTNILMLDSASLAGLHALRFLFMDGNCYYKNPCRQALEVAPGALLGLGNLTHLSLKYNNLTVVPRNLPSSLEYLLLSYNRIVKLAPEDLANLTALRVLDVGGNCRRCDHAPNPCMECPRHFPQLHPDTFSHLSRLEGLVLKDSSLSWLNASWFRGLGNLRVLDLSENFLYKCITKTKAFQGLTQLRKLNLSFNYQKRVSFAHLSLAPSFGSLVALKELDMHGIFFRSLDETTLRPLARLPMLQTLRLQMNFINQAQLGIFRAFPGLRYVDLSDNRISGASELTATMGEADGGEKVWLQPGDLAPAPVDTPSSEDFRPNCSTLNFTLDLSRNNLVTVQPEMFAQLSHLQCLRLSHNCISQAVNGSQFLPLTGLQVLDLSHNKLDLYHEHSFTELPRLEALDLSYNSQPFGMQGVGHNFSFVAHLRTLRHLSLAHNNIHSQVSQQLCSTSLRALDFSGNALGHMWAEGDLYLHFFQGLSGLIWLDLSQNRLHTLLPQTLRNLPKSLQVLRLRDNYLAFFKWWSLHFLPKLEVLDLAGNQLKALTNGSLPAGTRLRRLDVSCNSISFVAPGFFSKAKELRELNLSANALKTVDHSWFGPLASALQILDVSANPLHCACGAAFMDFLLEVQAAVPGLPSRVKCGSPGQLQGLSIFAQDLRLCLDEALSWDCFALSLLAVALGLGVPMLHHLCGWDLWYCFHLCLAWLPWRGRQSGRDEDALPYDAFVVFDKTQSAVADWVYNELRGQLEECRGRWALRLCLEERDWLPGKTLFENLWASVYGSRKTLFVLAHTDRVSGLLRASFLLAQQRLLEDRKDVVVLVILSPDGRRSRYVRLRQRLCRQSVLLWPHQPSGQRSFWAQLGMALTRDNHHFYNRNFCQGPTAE
# run_description: TLR9 inhibition reporter assay (HEK-Blue cells, SEAP reporter, ODN2006 stimulation)
# condition_description: read-out: TLR9 IC50, HEK-Blue cells overexpressing human TLR9, ODN2006 5 nM
endpoint_name: IC50 (nM)

[
  {
    "smiles_repr": "CCc1c(-c2ccnc(OC)c2)[nH]c2ccc(C3CCN(C4CCN(CC)CC4)CC3)cc12",
    "IC50 (nM)": 686
  },
  {
    "smiles_repr": "COc1cc(-c2[nH]c3ccc(C4CCN(C5CCN(C)CC5)CC4)cc3c2C(C)C)ccn1",
    "IC50 (nM)": 851
  },
  {
    "smiles_repr": "CCc1c(-c2ccnc(C)c2)[nH]c2ccc(C3CCN(C(C)C)CC3)cc12",
    "IC50 (nM)": 894
  }
]

----------
# target_entity: UniProtKB Q9NR96
# run_description: TLR9 inhibition reporter assay (HEK-Blue cells, SEAP reporter, ODN2006 stimulation)
# condition_description: read-out: TLR9 IC50, HEK-Blue cells overexpressing human TLR9, ODN2006 5 nM
endpoint_name: IC50 (nM)

Below are worked cases with known answers.
[
  {
    "compound": "Cc1cc(-c2[nH]c3ccc(C4CCN(C(=O)[C@@H]5C[C@H](O)CCN5)CC4)cc3c2C(C)C)ccn1",
    "target_entity": "UniProtKB Q9NR96",
    "u": "nM",
    "IC50": 967
  },
  {
    "compound": "Cc1cc(-c2[nH]c3ccc(C4CCN(C(=O)CN(CCO)Cc5ccccc5)CC4)cc3c2C(C)C)cc(C)n1",
    "target_entity": "UniProtKB Q9NR96",
    "u": "nM",
    "IC50": 1600
  },
  {
    "compound": "Cc1cc(-c2[nH]c3ccc(C4CCN(C(=O)C5(C)COC5)CC4)cc3c2C(C)C)ccn1",
    "target_entity": "UniProtKB Q9NR96",
    "u": "nM",
    "IC50": 44500
  },
  {
    "compound": "Cc1cc(-c2[nH]c3ccc(C4CCN(C(=O)C5CC5)CC4)cc3c2C(C)C)ccn1",
    "target_entity": "UniProtKB Q9NR96",
    "u": "nM",
    "IC50": 40900
  }
]

P. Cc1cc(-c2[nH]c3ccc(C4CCN(CC5CCN(C(C)C)C5)CC4)cc3c2C(C)C)cc(C)n1 (centres unmarked)
Q. Cc1cc(-c2[nH]c3ccc(C4CCNCC4)cc3c2C(C)C)c(N)cn1
R. CNCC(=O)N1CCC(c2ccc3[nH]c(-c4cc(C)nc(C)c4F)c(C(C)C)c3c2)CC1
S. Cc1cc(-c2[nH]c3ccc(C4CCN(Cc5nnc(C6CC6)o5)CC4)cc3c2C(C)C)c(F)cn1
T. Cc1cc(-c2[nH]c3ccc(C4CCN(C(=O)C[C@H](C)O)CC4)cc3c2C(C)C)cc(C)n1
# rank by IC50, ascending (min first) List labels; respect the requested ordering.
P, Q, R, S, T

I. Cc1cc(-c2[nH]c3ccc(C4CCN(C(=O)CCn5ccnc5C)CC4)cc3c2C(C)C)cc(C)n1
II. CCc1c(-c2ccnc(C)c2)[nH]c2ccc(C3CCN(C(=O)c4ccncc4)CC3)cc12
I'd appreciate it if you could identify which of I and II has the greater IC50. Return value: the label identifying the chosen record.
II

1. CCc1c(-c2ccnc(C)c2)[nH]c2ccc(C3CCN(C(=O)C4CCN(C)CC4)CC3)cc12
2. Cc1cc(-c2[nH]c3ccc(C4CCN(C(=O)C5CC(=O)N(C)C5)CC4)cc3c2C(C)C)cc(C2CC2)n1 (centres unmarked)
Which entry shows the lesser value of IC50 here, 1 or 2 ? Return value: the label identifying the chosen record.
1

----------
# target_entity: human TLR8 (Homo sapiens (Human), UniProt Q9NR97)
# Sequence (Q9NR97 27-1041): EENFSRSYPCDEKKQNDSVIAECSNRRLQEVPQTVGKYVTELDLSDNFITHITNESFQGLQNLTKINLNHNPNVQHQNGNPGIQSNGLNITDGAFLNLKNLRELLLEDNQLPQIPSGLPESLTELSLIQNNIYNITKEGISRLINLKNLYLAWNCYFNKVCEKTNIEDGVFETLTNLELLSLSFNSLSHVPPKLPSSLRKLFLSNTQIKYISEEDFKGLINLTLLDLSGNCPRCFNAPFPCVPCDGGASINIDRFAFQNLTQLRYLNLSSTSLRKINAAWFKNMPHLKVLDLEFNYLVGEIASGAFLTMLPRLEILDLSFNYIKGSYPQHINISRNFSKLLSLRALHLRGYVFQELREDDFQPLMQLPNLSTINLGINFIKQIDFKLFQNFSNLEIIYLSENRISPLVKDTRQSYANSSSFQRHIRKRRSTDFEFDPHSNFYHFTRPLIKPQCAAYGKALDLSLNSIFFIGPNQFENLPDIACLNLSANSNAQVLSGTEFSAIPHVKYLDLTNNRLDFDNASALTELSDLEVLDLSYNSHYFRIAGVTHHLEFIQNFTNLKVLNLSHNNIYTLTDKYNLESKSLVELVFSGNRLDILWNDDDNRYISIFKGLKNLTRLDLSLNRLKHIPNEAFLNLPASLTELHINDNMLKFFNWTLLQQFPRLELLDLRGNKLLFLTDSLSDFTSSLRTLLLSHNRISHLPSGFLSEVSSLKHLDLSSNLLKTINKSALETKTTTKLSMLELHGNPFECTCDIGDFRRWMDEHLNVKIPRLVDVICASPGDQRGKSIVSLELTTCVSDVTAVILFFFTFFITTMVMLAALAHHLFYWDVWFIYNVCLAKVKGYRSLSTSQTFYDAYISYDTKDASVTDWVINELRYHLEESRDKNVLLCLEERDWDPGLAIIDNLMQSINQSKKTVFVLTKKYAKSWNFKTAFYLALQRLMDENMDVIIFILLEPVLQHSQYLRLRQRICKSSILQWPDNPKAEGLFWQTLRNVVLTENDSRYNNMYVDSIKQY
# run_description: TLR8 inhibition reporter assay (HEK-Blue cells, SEAP reporter, R848 stimulation)
# condition_description: read-out: TLR8 IC50, HEK-Blue cells overexpressing human TLR8, R848 15.9 μM
endpoint_name: IC50 (nM)

Below are worked cases with known answers.
[
  {
    "molecule": "CC(=O)N1CCC(c2ccc3[nH]c(-c4cc(C)nc(F)c4)c(C(C)C)c3c2)CC1",
    "target_entity": "human TLR8 (Homo sapiens (Human), UniProt Q9NR97)",
    "IC50 / nM": 10700
  },
  {
    "molecule": "Cc1cc(-c2[nH]c3ccc(C4CCN(CC(=O)N(C)CC(C)C)CC4)cc3c2C(C)C)cc(C)n1",
    "target_entity": "human TLR8 (Homo sapiens (Human), UniProt Q9NR97)",
    "IC50 / nM": 32.4
  },
  {
    "molecule": "CCc1c(-c2ccnc(C)c2)[nH]c2ccc(C3CCN(C(=O)C4CCNCC4c4ccccc4)CC3)cc12 (centres unmarked)",
    "target_entity": "human TLR8 (Homo sapiens (Human), UniProt Q9NR97)",
    "IC50 / nM": 325
  },
  {
    "molecule": "Cc1cc(-c2[nH]c3ccc(C4CCN(C(=O)C5CCOCC5)CC4)cc3c2C(C)C)ccn1",
    "target_entity": "human TLR8 (Homo sapiens (Human), UniProt Q9NR97)",
    "IC50 / nM": 117
  }
]

A. Cc1cc(-c2[nH]c3ccc(C4CCN(C(=O)C5(N(C)C)CC5)CC4)cc3c2C(C)C)cc(C)n1
B. CNCCC(=O)N1CCC(c2ccc3[nH]c(-c4ccnc(C)c4)c(C(C)C)c3c2)CC1
C. CCC(CC)C(=O)N1CCC(c2ccc3[nH]c(-c4cc(C)nc(C)c4)c(C(C)C)c3c2)CC1
D. Cc1cc(-c2[nH]c3ccc(C4CCN(CC(N)=O)CC4)cc3c2C(C)C)c(C)cn1
Arrange by IC50, high to low. List labels; respect the requested ordering.
C, A, B, D

----------
# target_entity: human TLR9 (Homo sapiens (Human), UniProt Q9NR96)
# run_description: TLR9 inhibition reporter assay (HEK-Blue cells, SEAP reporter, ODN2006 stimulation);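 also: compounds tested over 0.05 nM to 50 µM, 22 h incubation, inhibition taken as SEAP signal drop from agonist plus DMSO wells toward a known inhibitor control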
# condition_description: read-out: TLR9 IC50, HEK-Blue cells overexpressing human TLR9, ODN2006 5 nM
endpoint_name: IC50 (nM)

[
  {
    "molecule": "Cc1cc(-c2[nH]c3ccc(C4CCN(C(=O)C5CCOC(C(C)C)C5)CC4)cc3c2C(C)C)ccn1 (stereo not shown)",
    "endpoint_name": "IC50",
    "value_measured": 9940
  },
  {
    "molecule": "CCCN(CCO)CC(=O)N1CCC(c2ccc3[nH]c(-c4cc(C)nc(C)c4)c(C(C)C)c3c2)CC1",
    "endpoint_name": "IC50",
    "value_measured": 771
  }
]

P. Cc1cc(-c2[nH]c3ccc(C4CCN(C(=O)CN5C[C@H](C)C[C@@H]5CO)CC4)cc3c2C(C)C)cc(C)n1
Q. Cc1cc(-c2[nH]c3ccc(C4CCN(C(=O)c5ccon5)CC4)cc3c2C(C)C)ccn1
R. Cc1cc(-c2[nH]c3ccc(C4CCN(C(=O)CN5CCN(C)CC5)CC4)cc3c2C(C)C)cc(C)n1
S. Cc1cc(-c2[nH]c3ccc(C4CCN(C5CCCOC5)CC4)cc3c2C(C)C)c(C)cn1 (stereo not shown)
Arrange by IC50, high to low. List labels; respect the requested ordering.
Q, S, R, P

----------
# target_entity: UniProtKB Q9NYK1
# Sequence (Q9NYK1 27-1049): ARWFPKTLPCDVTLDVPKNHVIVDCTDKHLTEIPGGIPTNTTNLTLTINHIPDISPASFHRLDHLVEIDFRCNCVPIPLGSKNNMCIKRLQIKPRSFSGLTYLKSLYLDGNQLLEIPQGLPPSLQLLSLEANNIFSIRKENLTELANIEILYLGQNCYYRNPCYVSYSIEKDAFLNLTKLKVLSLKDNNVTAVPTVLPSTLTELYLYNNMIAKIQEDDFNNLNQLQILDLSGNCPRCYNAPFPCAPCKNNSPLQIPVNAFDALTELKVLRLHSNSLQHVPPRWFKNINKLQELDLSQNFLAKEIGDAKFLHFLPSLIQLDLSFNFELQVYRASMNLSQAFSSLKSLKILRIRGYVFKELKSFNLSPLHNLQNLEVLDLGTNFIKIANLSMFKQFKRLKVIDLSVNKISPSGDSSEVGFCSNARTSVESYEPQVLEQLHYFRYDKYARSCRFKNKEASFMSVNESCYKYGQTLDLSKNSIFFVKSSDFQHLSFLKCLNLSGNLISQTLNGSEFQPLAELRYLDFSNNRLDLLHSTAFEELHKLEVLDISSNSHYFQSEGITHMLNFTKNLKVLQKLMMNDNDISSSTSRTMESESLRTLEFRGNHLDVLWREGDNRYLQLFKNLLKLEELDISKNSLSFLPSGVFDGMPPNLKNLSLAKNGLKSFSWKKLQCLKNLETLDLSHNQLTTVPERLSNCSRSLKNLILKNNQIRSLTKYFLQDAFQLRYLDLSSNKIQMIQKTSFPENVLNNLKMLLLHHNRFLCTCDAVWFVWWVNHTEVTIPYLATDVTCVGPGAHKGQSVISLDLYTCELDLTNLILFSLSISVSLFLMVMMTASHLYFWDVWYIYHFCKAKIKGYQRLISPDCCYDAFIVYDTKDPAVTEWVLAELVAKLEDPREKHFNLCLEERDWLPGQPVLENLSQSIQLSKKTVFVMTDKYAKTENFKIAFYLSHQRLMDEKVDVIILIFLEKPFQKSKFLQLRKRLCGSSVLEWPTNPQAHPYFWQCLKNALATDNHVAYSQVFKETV
# run_description: TLR7 inhibition reporter assay (HEK-Blue cells, SEAP reporter, gardiquimod stimulation)
# Type: cell-based
# condition_description: HEK-Blue cells overexpressing human TLR7, gardiquimod 7.5 μM
pIC50: −log10 of the molar value.
endpoint_name: pIC50

P. Cc1cc(-c2[nH]c3ccc(C4CCN(CC(=O)NCC(C)C)CC4)cc3c2C(C)C)cc(C)n1
Q. Cc1cc(-c2[nH]c3ccc(C4CCN(C(C)C)CC4)cc3c2CC(F)F)cc(C)n1
I'd appreciate it if you could identify which of P and Q has the greater pIC50. Return value: the label identifying the chosen record.
P

----------
# target_entity: human TLR8 (Homo sapiens (Human), UniProt Q9NR97)
# run_description: TLR8 inhibition reporter assay (HEK-Blue cells, SEAP reporter, R848 stimulation);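 also: compounds tested from 0.05 nM to 50 µM, 22 h at 37 °C, SEAP measured with HEK-Blue Detection, inhibition relative to agonist plus DMSO versus a known inhibitor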
# condition_description: read-out: TLR8 IC50, HEK-Blue cells overexpressing human TLR8, R848 15.9 μM
pIC50: −log10 of the molar value.
endpoint_name: pIC50

[
  {
    "compound": "Cc1cc(-c2[nH]c3ccc(C4CCN(CC#N)CC4)cc3c2C(C)C)cc(C)n1 [Example 312]",
    "pIC50": 7.85
  },
  {
    "compound": "Cc1cc(-c2[nH]c3ccc(C4CCNCC4)cc3c2C2CC2)cc(C)n1 [Example 93]",
    "pIC50": 8.04
  },
  {
    "compound": "Cc1cc(-c2[nH]c3ccc(C4CCN(Cc5cn(C)nn5)CC4)cc3c2C(C)C)cc(C)n1 [Example 442]",
    "pIC50": 8.17
  },
  {
    "compound": "Cc1cc(-c2[nH]c3ccc(C4CCN(C(=O)CN5CCCCC5)CC4)cc3c2C(C)C)cc(C)n1 [Example 351]",
    "pIC50": 8.14
  },
  {
    "compound": "Cc1cc(-c2[nH]c3ccc(C4CCN(C(=O)CNC5(C)CCC5)CC4)cc3c2C(C)C)cc(C)n1 [Example 353]",
    "pIC50": 8.02
  },
  {
    "compound": "Cc1nccc(-c2[nH]c3ccc(C4CCN(Cc5ncn(C)n5)CC4)cc3c2C(C)C)c1F [Example 732]",
    "pIC50": 7.99
  }
]

P. CCC(CC)NCC(=O)N1CCC(c2ccc3[nH]c(-c4cc(C)nc(C)c4)c(C(C)C)c3c2)CC1 [Example 345]
Q. COCCN1CCC(c2ccc3[nH]c(-c4cc(C)nc(C)c4)c(C(C)C)c3c2)CC1 [Example 325]
Which entry shows the lesser value of pIC50 here, P or Q ? Return value: the label identifying the chosen record.
P
(P: 7.47, Q: 8.42)
